test system: HCT-116 colon; assay: NCI tumour cell line growth inhibition, 48 h
PROPERTY_LABEL: TGI

Below, 2 compounds whose answers are already recorded.
INPUT: I have this compound here, `COc1cc(OC)cc(-c2ccc(-c3ccc(C(=N)N)o3)o2)c1` , and I need its recorded TGI.
OUTPUT: 6.11 µM

INPUT: I have this compound here, `Cc1c(C(=O)N/N=C/c2ccc(Cl)cc2)nnn1-c1ccnc2c(C(F)(F)F)cccc12` , and I need its recorded TGI.
OUTPUT: 5.42 µM

***
INPUT: I have this compound here, O=C(CCCCCCCCC(=O)NN1C(=O)/C(=C\c2ccc(O)c(O)c2)SC1c1ccc(Cl)cc1)NN1C(=O)/C(=C\c2ccc(O)c(O)c2)SC1c1ccc(Cl)cc1 (stereo not given) , and I need its recorded TGI.
OUTPUT: > 100 µM

INPUT: I have this compound here, `COc1cccc(-c2cc(=O)c3ccccc3o2)c1N` , and I need its recorded TGI.
OUTPUT: > 100 µM

INPUT: I have this compound here, `Cc1cc2c(cc1C)[n+](=O)c(C(=O)CC(=O)C(=O)Nc1c(C(C)C)cccc1C(C)C)c(C)n2[O-]` , and I need its recorded TGI.
OUTPUT: > 100 µM

INPUT: I have this compound here, `Cc1ccc(C(=O)Nc2ccc(CP(=O)(O)O)cc2CP(=O)(O)O)cc1NC(=O)c1cccc(N)c1` , and I need its recorded TGI.
OUTPUT: > 100 µM

###

test system: HCT-15 colon; experiment: NCI tumour cell line growth inhibition, 48 h
PROPERTY_LABEL: TGI

INPUT: Form field: TGI recorded for `O=C1NNC=Nc2ccc(cc2)S(=O)(=O)c2ccc(cc2)N=CNNC1=O` with HCT-15 colon (enter value)
OUTPUT: > 100 µM

INPUT: Form field: TGI recorded for CC(=O)OCC(C)C1=C(O)C(=O)C2(C)C/C=C(/C)CC/C=C(\C)CCC(O)C(C)CCC12 (configuration not stated) with HCT-15 colon (enter value)
OUTPUT: 36.2 µM

INPUT: Form field: TGI recorded for `CCOc1cccc(/C=N/NC(=O)c2ccccc2Nc2ccnc(C(F)(F)F)c2)c1O` with HCT-15 colon (enter value)
OUTPUT: > 100 µM

INPUT: Form field: TGI recorded for `Cc1cc2c(cc1C)[n+](=O)c(C(=O)CC(=O)C(=O)Nc1c(C(C)C)cccc1C(C)C)c(C)n2[O-]` with HCT-15 colon (enter value)
OUTPUT: > 100 µM

INPUT: Form field: TGI recorded for `CCCCNC1=C(C(=O)OCC)C(=O)CO1` with HCT-15 colon (enter value)
OUTPUT: > 100 µM

INPUT: Form field: TGI recorded for `COc1cc(OC)cc(-c2ccc(-c3ccc(C(=N)N)o3)o2)c1` with HCT-15 colon (enter value)
OUTPUT: 10.4 µM

***
INPUT: Form field: TGI recorded for `O=C(O)CC/C(=N\Nc1nsc2ccccc12)c1ccccc1` with HCT-15 colon (enter value)
OUTPUT: > 100 µM

INPUT: Form field: TGI recorded for `O=C(NNC(=S)Nc1ccc(Cl)cc1)c1cc(-c2ccccc2)nc2ccccc12` with HCT-15 colon (enter value)
OUTPUT: 14.9 µM

INPUT: Form field: TGI recorded for C[N+]1=C2[B-](C(C)(C)C)=[N+](C(C)(C)C)[B-]2(C(C)(C)C)[N+](C)=C2[B-](C(C)(C)C)=[N+](C(C)(C)C)[B-]21C(C)(C)C (configuration not stated) with HCT-15 colon (enter value)
OUTPUT: > 100 µM

INPUT: Form field: TGI recorded for CN(C)CCCOC(=O)C(c1ccccc1)C1(O)CCSCC1 (configuration not stated) with HCT-15 colon (enter value)
OUTPUT: > 100 µM

INPUT: Form field: TGI recorded for COc1ccc(N2C(=O)C3c4[nH]c5ccc(OCc6ccccc6)cc5c4C4CCC(C(C)(C)C)CC4C3C2=O)cc1 (configuration not stated) with HCT-15 colon (enter value)
OUTPUT: > 100 µM

INPUT: Form field: TGI recorded for COc1ccc(C(C#N)NNC(=O)c2ccccc2O)cc1OC (configuration not stated) with HCT-15 colon (enter value)
OUTPUT: > 100 µM

INPUT: Form field: TGI recorded for `Cc1c(C(=O)N/N=C/c2ccc(Cl)cc2)nnn1-c1ccnc2c(C(F)(F)F)cccc12` with HCT-15 colon (enter value)
OUTPUT: 16.3 µM

INPUT: Form field: TGI recorded for COc1ccc2cc1Oc1ccc(cc1)CC1c3cc(c(OC)cc3CCN1C)Oc1c3c(cc4c1C(C2)N(C)CC4)OCO3 (configuration not stated) with HCT-15 colon (enter value)
OUTPUT: 14.7 µM

The origin of these recorded values is PubChem BioAssay (NCI).
